- Experiment description: in vitro
- Condition label: rat, liver microsomes
- Description: Extraction ratio in rat liver microsomes at 1 uM upto 60 mins in presence of NDPH by LC/MS/MS analysis
Kindly state hepatic extraction ratio at 1 h, 1 µM for each of the entries shown.

Return reported hepatic extraction ratio at 1 h, 1 µM; argument: O=C(c1cccc(C(F)(F)F)c1Cl)N1CCc2c(ncn2-c2ccccc2)C1
0.89

What do you get for CC1c2ncn(-c3cnccn3)c2CCN1C(=O)c1cccc(C(F)(F)F)c1Cl (configuration not stated) ?
0.84

* * *

- Target desc: CYP3A4 (Homo sapiens, UniProt P08684)
- Sequence (P08684 whole entry): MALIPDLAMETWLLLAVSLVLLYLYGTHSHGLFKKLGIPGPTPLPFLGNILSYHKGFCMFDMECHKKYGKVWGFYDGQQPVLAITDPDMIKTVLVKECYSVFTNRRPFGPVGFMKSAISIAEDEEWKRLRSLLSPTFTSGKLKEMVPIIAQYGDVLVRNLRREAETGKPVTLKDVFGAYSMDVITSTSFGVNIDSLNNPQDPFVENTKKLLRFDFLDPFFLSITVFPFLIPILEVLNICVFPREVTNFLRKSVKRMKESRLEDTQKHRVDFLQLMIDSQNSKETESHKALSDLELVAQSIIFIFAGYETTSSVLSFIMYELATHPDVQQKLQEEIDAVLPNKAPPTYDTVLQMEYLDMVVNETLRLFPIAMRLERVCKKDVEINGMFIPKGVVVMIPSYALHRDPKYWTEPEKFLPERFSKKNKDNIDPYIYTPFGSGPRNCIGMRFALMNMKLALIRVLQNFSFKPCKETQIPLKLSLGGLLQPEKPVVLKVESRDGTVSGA
- Experiment description: Inhibition of CYP3A4 in human liver microsomes using midazolam as substrate assessed as reduction in 1-OH-midazolam formation at 0.02 uM by LC/MS/MS analysis
- Condition label: probe midazolam
Test readout: inhibition at 0.02 µM (%)
Unit % implied. Number only.

Consider the molecule shown here: CC(=O)N1CCN(c2ccc(OCC3COC(Cn4ccnc4)(c4ccc(Cl)cc4Cl)O3)cc2)CC1 (stereo unspecified) What is its recorded inhibition at 0.02 µM?
70

Data origin: ChEMBL document CHEMBL3856233
